- Target desc: atATC-F161A (Arabidopsis thaliana, UniProt P49077, F161A)
- Construct: 2.6 kDa fusion tag (modified pET28a); made in house; host or cells: E. coli BLR(DE3)-pLysS
- Sequence (P49077 82-390 F161A): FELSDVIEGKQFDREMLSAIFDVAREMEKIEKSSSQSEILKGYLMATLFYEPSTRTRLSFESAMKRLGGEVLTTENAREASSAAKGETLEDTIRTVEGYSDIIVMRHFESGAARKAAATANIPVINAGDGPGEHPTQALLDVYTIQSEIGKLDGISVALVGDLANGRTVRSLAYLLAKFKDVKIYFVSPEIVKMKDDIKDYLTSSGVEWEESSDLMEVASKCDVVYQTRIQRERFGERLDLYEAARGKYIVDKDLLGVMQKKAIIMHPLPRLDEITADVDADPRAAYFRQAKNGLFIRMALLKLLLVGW
- Experiment description: biochemical
- Type: binding
- Condition info: KD, ITC, F161A
Value kind: Kd (µM)
The answer is to be given in µM; state only the numeric part.

The reported value for NC(=O)OP(=O)(O)O [CP, carbamoyl phosphate] in terms of Kd is 0.7

Ref: paper PMC7878868
